# pKi measurements, system: α-glucosidase from Rominococcus obeum (Blautia obeum)
# Sequence (A5ZY13 entry or part of it): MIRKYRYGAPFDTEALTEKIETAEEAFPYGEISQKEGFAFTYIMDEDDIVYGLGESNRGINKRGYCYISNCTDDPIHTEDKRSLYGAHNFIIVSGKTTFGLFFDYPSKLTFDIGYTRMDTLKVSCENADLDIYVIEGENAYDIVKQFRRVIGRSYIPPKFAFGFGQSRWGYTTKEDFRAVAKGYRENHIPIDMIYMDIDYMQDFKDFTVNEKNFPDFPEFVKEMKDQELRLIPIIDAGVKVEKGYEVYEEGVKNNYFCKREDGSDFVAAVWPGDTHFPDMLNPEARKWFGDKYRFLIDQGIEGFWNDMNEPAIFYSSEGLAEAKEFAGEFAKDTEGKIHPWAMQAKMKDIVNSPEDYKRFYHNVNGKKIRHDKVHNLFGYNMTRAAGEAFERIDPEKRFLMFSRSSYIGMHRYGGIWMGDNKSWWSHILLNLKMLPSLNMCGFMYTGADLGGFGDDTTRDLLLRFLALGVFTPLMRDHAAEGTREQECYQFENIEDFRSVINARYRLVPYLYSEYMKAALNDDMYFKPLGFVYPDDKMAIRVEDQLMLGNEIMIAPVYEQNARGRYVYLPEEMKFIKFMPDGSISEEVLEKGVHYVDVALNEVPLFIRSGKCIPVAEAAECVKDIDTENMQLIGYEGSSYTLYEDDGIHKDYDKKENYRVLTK
pKi field: float, defined as -log10 of concentration (mol/L).

C[C@H]1O[C@H](O[C@H]2[C@H](O)[C@@H](O)[C@@H](O[C@H]3[C@H](O)[C@@H](O)C(O)O[C@@H]3CO)O[C@@H]2CO)[C@H](O)[C@@H](O)[C@@H]1N[C@H]1C=C(CO)[C@@H](O)[C@H](O)[C@H]1O (some centres unmarked) [acarbose] :: 4.57

Find pKi for Cc1ccc(-n2ncc3c2C(C)(C)[C@@H]2CC[C@]4(C)[C@H](C(=O)C=C5[C@@H]6C[C@@](C)(C(=O)O)CC[C@]6(C)CC[C@]54C)[C@@]2(C)C3)cc1 [FC-122] on α-glucosidase from Rominococcus obeum (Blautia obeum) and write it down.
5.28
